Test system: U937, human monocytic cells
TEST_PROTOCOL: Cytostatic assay, U937
Assay type: cell-based
CONDITION_PARAMETERS: U-937, Table 2
MEASURED_ENDPOINT: IC50 (µM)

Record excerpt, results attached:
| STRUCTURE_STRING | IC50, µM |
| --- | --- |
| CCOC(=O)c1cc(C#Cc2ccc(OC)cc2)sc1N | 41 |
| CCOC(=O)c1cc(CCc2ccccc2OC)sc1N | 80 |

P = COc1ccccc1CCc1cc(C#N)c(N)s1
Q = COC(=O)c1cc(CCc2ccccc2)sc1N
R = COC(=O)c1cc(-c2ccccc2OC)sc1N
Rank order required: IC50, descending. // list labels; follow requested order
R, Q, P
(R: 82 µM, Q: 46 µM, P: 3.4 µM)

====

This listing pairs compounds with measured IC50.
Tested on: Raji, human B-lymphoma cells
TEST_PROTOCOL: Cytostatic assay, Raji
Type: cell-based
CONDITION_PARAMETERS: Table 2

Record excerpt, results attached:
| STRUCTURE_STRING | REPORTED_MEASUREMENT |
| --- | --- |
| CCOC(=O)c1cc(-c2ccc(OC)cc2)sc1N | > 100 µM |
| COC(=O)c1cc(CCc2cccnc2)sc1N | > 100 µM |

Shifting focus to the compound that follows.
# query: IC50 of entry COc1ccc(-c2cc(C#N)c(N)s2)cc1
> 100 µM

====

Test system: CEM cells
TEST_PROTOCOL: Cytostatic assay, CEM
Format: cell-based
CONDITION_PARAMETERS: Homo sapiens, CCRF-CEM; Table 2; read-out: Cytostatic activity (μM) CEM
MEASURED_ENDPOINT: IC50 (µM)

Record excerpt, results attached:
| STRUCTURE_STRING | IC50 (µM) |
| --- | --- |
| CCOC(=O)c1cc(-c2ccccc2OC)sc1N | 27 |
| COC(=O)c1cc(CCc2ccsc2)sc1N | 1.7 |

a = COC(=O)c1cc(CCc2ccccc2OC)sc1N
b = CCOC(=O)c1cc(-c2ccc(OC)cc2)sc1N
I need your help: which of the pair a , b has higher IC50? # reply format: chosen label
b
(b: 40 µM, a: 1.8 µM)

====

Tested on: Caki-2 kidney carcinoma cells
TEST_PROTOCOL: Cytostatic assay, Caki-2
Format: cell-based
CONDITION_PARAMETERS: Homo sapiens, Table 3
MEASURED_ENDPOINT: IC50 (µM)

Record excerpt, results attached:
| STRUCTURE_STRING | IC50 (µM) |
| --- | --- |
| COc1ccccc1CCc1cc(C#N)c(N)s1 | 4.8 |
| COC(=O)c1cc(CCc2ccccc2)sc1N | 43 |
| COC(=O)c1c(N)sc(CCc2cc(OC)ccc2OC)c1C | 52 |
| COC(=O)c1cc(CCc2ccccc2OC)sc1N | 4.5 |
| CCOC(=O)c1cc(-c2ccccc2OC)sc1N | 17 |

a = CCOC(=O)c1c(N)sc(CCc2ccc(OC)cc2)c1C(=O)OCC
b = COC(=O)c1cc(-c2ccccc2OC)sc1N
Kindly identify the item with the lower IC50 figure among these two: a and b # reply format: chosen label
b

====

Test system: HepG2C3A hepatoma cells
TEST_PROTOCOL: Cytostatic assay, HepG2C3A
Type: cell-based
CONDITION_PARAMETERS: Homo sapiens, HepG2/C3A; Table 4
MEASURED_ENDPOINT: IC50

Record excerpt, results attached:
| STRUCTURE_STRING | IC50 |
| --- | --- |
| COC(=O)c1cc(CCc2cccnc2)sc1N | > 100 µM |
| CCOC(=O)c1cc(-c2ccc(OC)cc2)sc1N | > 100 µM |

Shifting focus to the compound that follows.
# query: IC50 of entry COc1ccc(-c2cc(C#N)c(N)s2)cc1
≥ 100 µM

====

This listing pairs molecules with measured IC50.
System: U937, human monocytic cells
TEST_PROTOCOL: Cytostatic assay, U937
Type: cell-based
CONDITION_PARAMETERS: U-937, Table 2

| STRUCTURE_STRING | REPORTED_MEASUREMENT |
| --- | --- |
| COc1ccc(-c2cc(C#N)c(N)s2)cc1 | > 200 µM |
| COC(=O)c1cc(CCc2cccnc2)sc1N | > 200 µM |

Shifting focus to the molecule that follows.
# query: IC50 of entry COC(=O)c1cc(CCc2ccccn2)sc1N
> 200 µM

====

Tested on: Caki-2 kidney carcinoma cells
TEST_PROTOCOL: Cytostatic assay, Caki-2
Type: cell-based
CONDITION_PARAMETERS: Homo sapiens, Table 3
MEASURED_ENDPOINT: IC50

Record excerpt, results attached:
| STRUCTURE_STRING | ASSAYED_SYSTEM | IC50 |
| --- | --- | --- |
| COC(=O)c1cc(CCc2cccnc2)sc1N | Caki-2 kidney carcinoma cells | > 200 µM |
| COC(=O)c1cc(CCc2ccccn2)sc1N | Caki-2 kidney carcinoma cells | > 200 µM |
| N#Cc1cc(CCc2ccccc2)sc1N | Caki-2 kidney carcinoma cells | 78 µM |
| COc1ccc(-c2cc(C#N)c(N)s2)cc1 | Caki-2 kidney carcinoma cells | ≥ 200 µM |

Shifting focus to the compound that follows.
Field: IC50 (Caki-2 kidney carcinoma cells). Entry: COC(=O)c1cc(CCc2ccc(OC)cc2C)sc1N
≥ 200 µM

Reference source for all entries: patent US9278958B2
